- Assay target: T1, human IL-18 binding protein (human, UniProt O95998 31-194)
- T1 sequence (looked up): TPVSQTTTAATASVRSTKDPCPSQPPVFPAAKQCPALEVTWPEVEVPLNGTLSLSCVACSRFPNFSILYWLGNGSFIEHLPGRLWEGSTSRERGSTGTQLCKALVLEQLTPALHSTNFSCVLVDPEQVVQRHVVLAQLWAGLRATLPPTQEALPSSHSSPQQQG
- Test protocol: cell-based or functional assay
Experimental readout: Ratio (-BP/+BP), DF-1,000,000

Binder	Experimental readout	Result
yeast display IL-18 variant K53T, S55M, R58K (ligand) YFGKLESKLSVIRNLNDQVLFIDQGNRPLFEDMTDSDMRDNAPRTIFIISMYTDMQPKGMAVTISVKSEKISTLSSENKIISFKEMNPPDNIKDTKSDIIFFQRSVPGHDNKMQFESSSYEGYFLASEKERDLFKLILKKEDELGDRSIMFTVQNED	Ratio (-BP/+BP), DF-1,000,000	0.72
yeast display IL-18 variant L5W, I22M, K53N, S55Y, Q56H (ligand) YFGKWESKLSVIRNLNDQVLFMDQGNRPLFEDMTDSDMRDNAPRTIFIISMYNDYHPRGMAVTISVKSEKISTLSSENKIISFKEMNPPDNIKDTKSDIIFFQRSVPGHDNKMQFESSSYEGYFLASEKERDLFKLILKKEDELGDRSIMFTVQNED	Ratio (-BP/+BP), DF-1,000,000	0.61
yeast display IL-18 variant S36E, D37E, D40K, N41T, K53T, S55Q, R104H (ligand) YFGKLESKLSVIRNLNDQVLFIDQGNRPLFEDMTDEEMRKTAPRTIFIISMYTDQQPRGMAVTISVKSEKISTLSSENKIISFKEMNPPDNIKDTKSDIIFFQHSVPGHDNKMQFESSSYEGYFLASEKERDLFKLILKKEDELGDRSIMFTVQNED	Ratio (-BP/+BP), DF-1,000,000	1.22
